System Name: T1, TRX-APRIL (mouse, UniProt Q9D777 104-241)
T1 construct: Named only as TRX-APRIL
T1 sequence (looked up): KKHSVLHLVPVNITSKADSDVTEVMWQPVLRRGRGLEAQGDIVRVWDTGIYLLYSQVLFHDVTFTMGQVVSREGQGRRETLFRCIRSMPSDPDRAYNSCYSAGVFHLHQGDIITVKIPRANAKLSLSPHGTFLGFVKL
Measurement Protocol: SPR competition: ligand in solution against immobilized BCMA-Fc
Measured Parameter: IC50 (nM)

GSPWSLSCRKEQGKFYDHLLRDCISCASICGQHPKQCAYFCENKLR (receptor, E. coli, cleaved from TRX-His fusion; residue numbers are those of native human TACI (293 aa); also called TACI CRD2) [TACI_d2 (second cysteine-rich domain, CRD2, residues 68-109 of human TACI)]: 6
